Experiment: Cell Proliferation Assay against the TMD8 Cell Line (Caspase readout at 8 hrs) (AID 651713)
Details: TMD8 lymphoma cells, caspase activation luminescence; series mostly up to 46.1 µM
Results filed as inconclusive are left out. The source made the active and inactive calls. Calls come from the whole dose curve; as a rule, active = well fitted activation curve with a large enough effect; inconclusive = small, poorly fitted or top-dose-only effect, or another doubt; inactive = no such curve, though single readings can be large or run the other way.
Observation Type: outcome

See these solved cases before continuing.
Compound: Cc1nn(Cc2ccccc2Cl)c(C)c1CN(C)CC(O)COc1ccc(Cl)cc1 (configuration not stated)
Observation Type: outcome
Reported Measurement: inactive
//
Compound: O=C1C(CCC(O)c2ccc(F)cc2)C(c2ccc(O)cc2)N1c1ccc(F)cc1 (configuration not stated)
Observation Type: outcome
Reported Measurement: inactive
//
Compound: CC(C)C[C@@H](C(=O)N[C@H](C(=O)OC1CCCC1)c1ccccc1)[C@H](O)C(=O)NO
Observation Type: outcome
Reported Measurement: inactive
//
Compound: NC(=O)c1ccc(N(C(N)=O)c2c(F)cccc2F)nc1-c1ccc(F)cc1F
Observation Type: outcome
Reported Measurement: inactive
//
Compound: COC(=O)Nc1ccc(-c2nc(N3CCOCC3)c3cnn(C4CCN(C(=O)OC)CC4)c3n2)cc1
Observation Type: outcome
Reported Measurement: inactive

Provide each entry's outcome from the list below.
1. CCCCCCCCCCCCCC(=O)N[C@H](CO)[C@H](O)c1ccc([N+](=O)[O-])cc1
2. CCC(=O)N1CCN(c2ccc(-n3c(=O)ccc4cnc5ccc(-c6cnc7ccccc7c6)cc5c43)cc2C(F)(F)F)CC1

1. inactive
2. inactive

====

Test: qHTS drug screen for cell cycle checkpoint inhibitors in PARPi-resistant BRCA-mutant ovarian cancer cell lines. (AID 1963452)
Settings: PEO1/OlaR viability, CellTiter-Glo luminescence, 96 h; measured here: PEO1 parental Z-AUC; stronger effect = lower value
Friendly reminder: Z-AUC below -0.3 is yes, at or above is no.

Compound: COc1c(C)cnc(Cn2cnc3c(Cl)nc(N)nc32)c1C
Answer Label: yes

Compound: CCC[C@H](N[C@@H](C)C(=O)N1[C@@H]2CCCC[C@H]2C[C@H]1C(=O)O)C(=O)OCC
Answer Label: yes

Compound: COc1ccc(-c2cc3nccn3c(Nc3ncccc3C(N)=O)n2)cc1OC
Answer Label: no

Compound: CCC(c1ccc(O)cc1)C(CC)c1ccc(O)cc1 (configuration not stated)
Answer Label: yes

Compound: O=C(O)c1nc(=O)[nH]c(=O)[nH]1
Answer Label: no

Compound: O=C(O)Cc1cccc(OCCCN(Cc2cccc(C(F)(F)F)c2Cl)CC(c2ccccc2)c2ccccc2)c1
Answer Label: no

Compound: C[C@H](c1ccc(F)cc1CCCC(=O)O)N(c1cc(F)ccc1F)S(=O)(=O)c1ccc(Cl)cc1
Answer Label: no

Compound: CCc1cc(-c2n[nH]c(C)c2-c2ccc3c(c2)OCCO3)c(O)cc1O
Answer Label: no

Compound: CN1c2ccccc2C(=O)N2CCc3c([nH]c4ccccc34)C21 (configuration not stated)
Answer Label: no

Compound: OC1CCC(Nc2ncc3nc(Nc4c(F)cc(F)cc4F)n([C@@H]4CCOC4)c3n2)CC1 (some centres not stated)
Answer Label: no

Hi there! Is Z-AUC for CCn1c(-c2nonc2N)nc2cncc(CNC3CCNCC3)c21 below -0.3, do you know?
no

Can you check C#CCN(C)CC1=Cc2ccccc2Oc2ccccc21 next?
yes

Can you check CCCCOCCOc1nc(-c2ccc(C(=O)O)c(F)c2)sc1C next?
no

Can you check O=C(CC12CC3CC(CC(C3)C1)C2)Nc1cccc2nc(NCCNCCO)ccc12 next?
no

Can you check C=CC(=O)Nc1cccc(Sc2nc(Nc3ccc(N4CCN(C)CC4)cc3)ncc2Cl)c1 next?
no

Can you check CS(=O)(=O)c1ccc(C2=C(c3ccccc3)C(=O)OC2)cc1 next?
no

Can you check Cc1ccc(C(=O)N(CCCN)[C@@H](c2nc3cc(Cl)ccc3c(=O)n2Cc2ccccc2)C(C)C)cc1 next?
yes

Can you check O=C(O)CCNc1cc(N2CCc3ccccc3CC2)nc(-c2ccccn2)n1 next?
no

Can you check Cc1cccc(-c2[nH]c(C(C)(C)C)nc2-c2ccc3c(c2)OCO3)n1 next?
no

Can you check COC(=O)[C@H](c1ccccc1Cl)N1CCc2sccc2C1 next?
no

Can you check Cc1cc(NC(=O)Nc2ccc(N(C)C)cc2)c2cc(F)cc(F)c2n1 next?
yes

Can you check NS(=O)(=O)c1cc(Cl)c(Cl)c(S(N)(=O)=O)c1 next?
no

Can you check N[C@@H](CC(=O)N1CCn2c(nnc2C(F)(F)F)C1)Cc1cc(F)c(F)cc1F next?
no

Can you check Nc1ncnc2c1ncn2[C@@H]1O[C@H](CO)[C@@H](O)[C@@H]1O next?
no

Can you check CCNC(=O)c1noc(-c2cc(C(C)C)c(O)cc2O)c1-c1ccc(CN2CCOCC2)cc1 next?
yes

Can you check Fc1ccc(CNc2ncnc3ccc(F)cc23)cc1 next?
yes

Can you check CC[C@H](CC#N)OC(=O)N[C@@H](C)c1cccc(NC(=O)Nc2ccc(-c3cnco3)c(OC)c2)c1 next?
yes

Can you check CC(=O)NCCC(=O)N[C@@H](CCC(N)=O)C(=O)N[C@@H](CO)C(=O)N[C@@H](CCC(N)=O)C(=O)N[C@@H](CCC(N)=O)C(=O)N[C@H](C(=O)N[C@@H](Cc1ccccc1)C(=O)N[C@]1(C)CCCCCCC=CCCC[C@@](C)(C(=O)N[C@@H](CCC(N)=O)C(=O)N[C@@H](CC(N)=O)C(N)=O)NC(=O)[C@H](CC(C)C)NC(=O)[C@H](CC(C)C)NC(=O)[C@@H](CCCNC(=N)N)NC(=O)[C@H](Cc2c[nH]c3ccccc23)NC(=O)[C@H](CC(C)C)NC(=O)[C@H](CC(N)=O)NC1=O)[C@H](C)O next?
yes

Can you check CC1(COc2ccc3c(c2)ncn3-c2ccc3cccc(N4CCC(N)CC4)c3n2)COC1 next?
no

Can you check CC(C)(OCc1nn(Cc2ccccc2)c2ccccc12)C(=O)O next?
no

Can you check NCc1c[nH]c(=S)n1[C@H]1CCc2c(F)cc(F)cc2C1 next?
yes

Can you check NS(=O)(=O)c1ccc(Nc2nc(OCC3CCCCC3)c3[nH]cnc3n2)cc1 next?
yes

Can you check CNC(=O)c1ccc2c(C(=Nc3cccc(CN(C)C)c3)c3ccccc3)c(O)[nH]c2c1 next?
no

Can you check Cc1ccc(NC(=O)c2cccc(N(C)C)c2)cc1NC(=O)c1ccc(O)cc1 next?
no

Can you check Nc1ccn([C@@H]2O[C@H](CO)[C@@H](O)[C@H]2O)c(=O)n1 next?
no

Can you check COc1cccc(OC)c1-c1cc(C(=O)NC2(C(=O)O)C3CC4CC(C3)CC2C4)nn1-c1ccnc2cc(Cl)ccc12 (configuration not stated) next?
no

Can you check COc1nc(C)cnc1NS(=O)(=O)c1cccnc1-c1ccc(-c2nnco2)cc1 next?
no

====

Biological target: Glutathione peroxidase 1 (Homo sapiens)
Assay: Primary qHTS Assay for Inhibitors of Recombinant Selenoprotein Glutathione Peroxidase 1 (GPX1) (AID 1845191); note: nearly all actives have a fitted effect of over 65% in size
Settings: recombinant GPX1, GR-coupled NADPH fluorescence, 15 min; series mostly up to 48.8 µM
Records with an inconclusive call do not appear. Calls of active or inactive are those of the source. Calls follow the shape of the dose curve; as a rule, active = well fitted inhibition curve with a large enough effect; inconclusive = small, poorly fitted or top-dose-only effect; inactive = flat fitted curve, though single readings scatter.
Observation Type: outcome

See these solved cases before continuing.
Compound: Nc1[nH]nc2nnc(-c3c(-c4ccccc4)nn4ccccc34)cc12
outcome: inactive
//
Compound: CCCCC(C)(C)[C@H](O)C=C[C@H]1[C@H](O)CC(=O)[C@H]1CC=CCCCC(=O)O
outcome: inactive
//
Compound: CN(C)CCOc1cc(-c2cn[nH]c2)ccc1NC(=O)C1COc2ccccc2O1 (stereo not given)
outcome: inactive
//
Compound: O=C(O)CCC=CCC[C@@H]1[C@H](N2CCCCC2)[C@@H](O)C[C@@H]1OCc1ccc(-c2ccccc2)cc1
outcome: inactive

Provide each entry's outcome from the list below.
1. Cc1cn([C@@H]2C[C@@H](O)[C@H](CO)O2)c(=O)[nH]c1=O
2. CCC(c1ccc(O)cc1)C(CC)c1ccc(O)cc1 (stereo not given)
3. c1ccc(-c2oc3ncnc(NC[C@@H]4CCCO4)c3c2-c2ccccc2)cc1
4. O=C(c1ccc(C(=O)N2CCC(N3CCCC3)CC2)c(Nc2ccccc2)c1)N1CCC(N2CCCC2)CC1
5. Cn1cc(-c2ccc3nnc(Sc4ccc5ncccc5c4)n3n2)cn1
6. CN(C)N=Nc1nc[nH]c1C(N)=O

["inactive", "inactive", "inactive", "inactive", "inactive", "inactive"]

====

Experiment: Quantitative High-Throughput drug screen in 47 multiple myeloma cell lines against the NCATS MIPE library collection: XG1_PLB cell viability assay (AID 1919866); note: nearly all actives have a fitted effect of over 35% in size
Details: CellTiter-Glo ATP, 48 h; series mostly up to 45.8 µM
Inconclusive results are not listed. Calls of active or inactive are those of the source. Calls come from the whole dose curve; as a rule, active = well fitted cell-killing curve with a large enough effect; inconclusive = small, poorly fitted or top-dose-only effect, or effect the other way; inactive = no such curve, though single readings can be large or run the other way.
Hi there, use one of these labels in your reply, thanks! active, inactive

Compound: C[C@@H]1O[C@@H](O[C@H]2CC[C@@]3(C)[C@H](CC[C@@H]4[C@H]3C[C@@H](O)[C@]3(C)[C@@H](C5=CC(=O)OC5)CC[C@]43O)C2)C[C@H](O)[C@@H]1O[C@H]1C[C@H](O)[C@H](O[C@H]2C[C@H](O)[C@@H](O)[C@@H](C)O2)[C@H](C)O1 (stereo in doubt)
Answer Label: active

# lookup: test call for Cc1[nH]c(C=C2C(=O)Nc3ccc(S(=O)(=O)N(C)c4cccc(Cl)c4)cc32)c(C)c1C(=O)N1CCN(C)CC1
active

Can you check C#CCN(C)CC1=Cc2ccccc2Oc2ccccc21 next?
inactive
